- TESTED ON: T1, Human CD19-his protein (human, UniProt P15391 20-291)
- T1 construct: bought protein; also called human CD19 protein; recombinant human CD19-His; not shown: His tag
- T1 sequence (looked up): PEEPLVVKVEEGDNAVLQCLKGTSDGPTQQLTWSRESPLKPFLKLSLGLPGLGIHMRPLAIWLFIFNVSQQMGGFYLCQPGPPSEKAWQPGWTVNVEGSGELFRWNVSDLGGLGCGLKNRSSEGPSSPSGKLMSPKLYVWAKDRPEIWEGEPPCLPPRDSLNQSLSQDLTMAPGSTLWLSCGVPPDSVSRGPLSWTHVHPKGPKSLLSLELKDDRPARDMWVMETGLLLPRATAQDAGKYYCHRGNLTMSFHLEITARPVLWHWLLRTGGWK
- RUN DESCRIPTION: ELISA, antibody at 0.001 nM
MEASURE: OD450
Number only, no unit.

Task item: Field request: OD450 | item: F3.3.10 (antibody, human IgG1, V domains shown, human-murine chimeric antibody, human IgG1) VH: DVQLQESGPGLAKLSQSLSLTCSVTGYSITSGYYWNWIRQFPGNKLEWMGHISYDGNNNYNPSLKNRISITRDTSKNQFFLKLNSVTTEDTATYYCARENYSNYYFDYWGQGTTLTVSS VL: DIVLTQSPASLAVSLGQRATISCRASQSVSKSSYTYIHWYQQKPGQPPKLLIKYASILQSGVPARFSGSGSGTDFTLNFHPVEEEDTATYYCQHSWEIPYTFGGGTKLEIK
Reply: 0.05

Task item: Field request: OD450 | item: F4.152.7 (antibody, human IgG1, V domains shown, human-murine chimeric antibody, human IgG1) VH: QVQLQQPGAELVKPGASVKLSCKASGYTFTSYWMHWVKQRPGQGLEWIGEIDPSDSYTNYNQKFKGKATLTADKSSSTAYMQLSGLTSEDSAVYHCARGGDYDGYYVMDYWGQGTSVTVSS VL: EIVLTQSPTTMAASPGEKITITCSASSSISSNYLHWYQQKPGFSPKLLIYRTSNLASGVPARFSGSGSGTSYSLTIGTMEADDVATYYCQQGSYIPRIFTFGSGTKLEIK
Reply: 0.07

Task item: Field request: OD450 | item: F3.40.14 (antibody, human IgG1, V domains shown, human-murine chimeric antibody, human IgG1) VH: QAQLQQSGPELVKPGASVKISCKASGYAFSGSWMNWVQQRPGKGLEWIGRIYPGDGDTYYSGKFKDKAILTADTSSSTAYMQLSSLTSEDSAVYFCAQLRSRYVMDYWGQGASVTVSS VL: DIVLTQSPASLAVSLGQRATISCRASESVSIHGTHLMHWYQQKPGQPPRLLIYAASNLESGVPARFSGSGSETDFTLNIHPVEEEDAATYFCQQGIDDPYTFGGGTKLEIK
Reply: 0.05

Task item: Field request: OD450 | item: F4.21.2 (antibody, human IgG1, V domains shown, human-murine chimeric antibody, human IgG1) VH: QVQLKQSGPGLVQPSQSLSITCTVSGFSLSTYGVHWVRQSPGRGLEWLGVIWIGGTTDYNAAFISRLTISKDNSRGQVFFKMDSLQANDTAIYYCARKGYYKYDGGYYYAMDYWGQGTSVTVSS VL: DIQMTQSSSYLSVSLGGRVTITCKASDHINNWLAWYQQKPGNAPWLLISGATSLETGVPSRFSGSGSGKDYTLSISSLQTEDVATYYCQQYWSTPLTFGAGTKLELK
Reply: 0.1

Task item: Field request: OD450 | item: F5.10.6 (antibody, human IgG1, V domains shown, human-murine chimeric antibody, human IgG1) VH: DVQLQESGPGLVKPSQSLSLTCSVTDYSITSGYYWTWIRQFPGNKLEWMGYISYDGSTNYNPSLKNRFSITRDTSKNQFFLKLNSVIIEDTATYYCARDRMSTTWYFDVWGTGTTVTVSS VL: DIVLTQSPASLAVSLGQRATISCRASESVDNYGISFMHWYQQKPGQPPKLLIYRASKTESGIPARFSGSGSRTDFTLTINPVETDDVATYYCQQSNKYPRTFGGGTKVEIK
Reply: 0.07

Task item: Field request: OD450 | item: F3.5.1 (antibody, human IgG1, V domains shown, human-murine chimeric antibody, human IgG1) VH: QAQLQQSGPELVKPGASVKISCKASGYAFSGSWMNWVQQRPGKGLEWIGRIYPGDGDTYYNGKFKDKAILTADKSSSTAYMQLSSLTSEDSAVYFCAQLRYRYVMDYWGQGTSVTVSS VL: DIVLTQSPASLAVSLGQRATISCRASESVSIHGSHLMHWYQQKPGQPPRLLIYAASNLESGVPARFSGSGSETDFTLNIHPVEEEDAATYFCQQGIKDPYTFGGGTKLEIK
Reply: 0.06

New cases:
Task item: Field request: OD450 | item: F6.12.12 (antibody, human IgG1, V domains shown, human-murine chimeric antibody, human IgG1) VH: DVQLQESGPGLVKPSQSLSLTCSVTGYSITSGYYWIWIRQFPGNKLEWMGYISYDASNKYKPSLKNRISITRDTSKNQFFLKLNSVTAEDTATYFCAREDLRGYFDVWGTGTSVTVSS VL: DIVLTQSPASLAVSLGRRATISCRASQSVSTSGFSYMHWYQQKPGQPPNLLIKYASILQSGVPARFSGSGSGTDFILNIHPVEDVDTATYYCQHSWGIPFTFGSGTKLEIK
Reply: 0.06
